Record type: pKd measurement. Applies to: branched-chain amino acid binding protein (Escherichia coli, UniProt P0AD96)
One number for each entry, as −log10 of the molar value.

Illustrative cases are given below, each with its answer.
>>> observed("CC(C)[C@H](N)C(=O)O")
3.87
>>> observed("CC[C@H](C)[C@H](N)C(=O)O")
4.17

Next compound, please.
Notebook: CC(C)C[C@H](N)C(=O)O , pKd read as 4.24

Provenance of the data: patent US20230243815A1
